- assay.conditions: 308.15 K; 101.33 kPa; Liquid; Vibrating tube method
Label 1.0 when mass density is strictly below 900 kg/m3; otherwise label 0.0.

Enquiry: Consider CN(C)C=O [dimethylformamide] . Does its mass density lie strictly below 900 kg/m3?
Return: 0.0

Enquiry: Consider CCCCN(C=O)CCCC [N,N-dibutylformamide] . Does its mass density lie strictly below 900 kg/m3?
Return: 1.0

Enquiry: Consider CNC=O [N-methylformamide] . Does its mass density lie strictly below 900 kg/m3?
Return: 0.0

Enquiry: Consider CCCC[N+]1(C)CCCC1.FC(F)(F)C(F)(F)[P-](F)(F)(F)(C(F)(F)C(F)(F)F)C(F)(F)C(F)(F)F . Does its mass density lie strictly below 900 kg/m3?
Return: 0.0

Enquiry: Consider CCNC=O [N-ethylformamide] . Does its mass density lie strictly below 900 kg/m3?
Return: 0.0

----------
Could you please report measured mass density for the items listed next?
- assay.conditions: 313.15 K; 101.33 kPa; Liquid; Vibrating tube method
Answer in kg/m3, number only, no unit symbol.

Enquiry: State its mass density: CCNC=O [N-ethylformamide]
Return: 934.78

Enquiry: State its mass density: CN(C)C=O [dimethylformamide]
Return: 929.13

Enquiry: State its mass density: CNC=O [N-methylformamide]
Return: 985.47

Enquiry: State its mass density: CC(=O)N(C)C [N,N-dimethylethanamide]
Return: 922.09

Enquiry: State its mass density: CCCC[N+]1(C)CCCC1.FC(F)(F)C(F)(F)[P-](F)(F)(F)(C(F)(F)C(F)(F)F)C(F)(F)C(F)(F)F
Return: 1566.62

Enquiry: State its mass density: CCCCN(C=O)CCCC [N,N-dibutylformamide]
Return: 863.11

----------
- assay.conditions: 298.15 K; 101.33 kPa; Liquid; Vibrating tube method
Could you please report measured mass density for the items listed next?
Answer in kg/m3, number only, no unit symbol.

Enquiry: State its mass density: CCCC[N+]1(C)CCCC1.FC(F)(F)C(F)(F)[P-](F)(F)(F)(C(F)(F)C(F)(F)F)C(F)(F)C(F)(F)F
Return: 1583.15

Enquiry: State its mass density: CN(C)C=O [dimethylformamide]
Return: 943.86

Enquiry: State its mass density: CCCCN(C=O)CCCC [N,N-dibutylformamide]
Return: 875.12

Enquiry: State its mass density: CC(=O)N(C)C [N,N-dimethylethanamide]
Return: 936.3

Enquiry: State its mass density: CCNC=O [N-ethylformamide]
Return: 947.48

Enquiry: State its mass density: CNC=O [N-methylformamide]
Return: 998.91

----------
- assay.conditions: 323.15 K; 101.33 kPa; Liquid; Vibrating tube method
observed.property: mass density (kg/m3)
Answer in kg/m3, number only, no unit symbol.

Enquiry: State its mass density: CCNC=O [N-ethylformamide]
Return: 926.06

Enquiry: State its mass density: CC(=O)N(C)C [N,N-dimethylethanamide]
Return: 912.23

Enquiry: State its mass density: CN(C)C=O [dimethylformamide]
Return: 918.96
